Values from PubChem BioAssay (NCI)

system: MALME-3M melanoma; assay: NCI-60 one-dose screen, 48 h (100 = growth as untreated, 0 = no growth, -100 = all killed); conditions: 10 µM unless noted
The panel holds about 83,000 compounds, 20% with a hit somewhere; the sample as a whole holds those more often. Activity calls are given as the source filed them. Rule for the calls: active = growth percent below 10; inactive = the rest.
QUANTITY: growth

Nc1nc2c(c3cnccc13)C(c1cccc(Br)c1)Cc1cnccc1-2 (centres undefined) :: 36.1% (inactive)
CC(C)CCCCCOC(=O)c1ccccc1SSc1ccccc1C(=O)OCCCCCC(C)C :: 110% (inactive)
COc1ccc(-c2nc(SCC(C)C)nc(Nc3ccc([N+](=O)[O-])cc3)c2C#N)cc1 :: 98% (inactive)

Would you mind giving growth for every compound in the list below?
1. O=C(/C=C/c1cccc(O)c1)c1cccc(-n2cc(-c3ccc(Cl)cc3)[nH]c2=O)c1
2. CCCCN(CCC)CCCCCCCCCCN1CCCc2ccccc21
3. Cn1c2c(cc(S(=O)(=O)c3ccccc3)c1=O)CCc1c-2cnn1-c1ccc(Cl)cc1
4. CC(=O)OC1CC2C3CCC4C[C@@H](NC(=O)C=C(C)C)CC[C@]4(C)C3CC[C@]2(C)[C@H]1C(C)N(C)C (some centres undefined)
5. Br/C(=N\Nc1nn[nH]n1)c1ccccc1
6. Nc1nc2c(c3cnccc13)C(c1ccc(Cl)c(Cl)c1)Cc1cnccc1-2 (centres undefined)

1. -36% (active)
2. 74.3% (inactive)
3. -70.7% (active)
4. -54% (active)
5. 104% (inactive)
6. -67% (active)

Would you mind giving growth for every compound in the list below?
1. CCCCCCCCc1ccc(CCC(N)(CO)CO)cc1
2. CCCCCCCCCCCCOC(=O)/C=C\C(=O)NC(N)=O
3. C=C[C@]1(C)C=C2C(=O)[C@@]3(O)OC[C@@]4(CCCC(C)(C)C43O)C2(O)C(O)C1 (some centres undefined)
4. CCCNC(=O)Oc1ccc(/C(=C(/C)Cc2ccc(OC)cc2)c2ccc(OCCN3CCCCC3)cc2)cc1

["26.2% (inactive)", "102% (inactive)", "5.18% (active)", "112% (inactive)"]

Would you mind giving growth for every compound in the list below?
1. COc1nc(OC)nc(-c2cc(-c3cc(OC)c(OC)c(OC)c3)no2)n1
2. CC(=O)N1CCN(CCNC(=O)n2cc(-c3ccncc3)c(-c3cc(O)cc(Cl)c3)n2)CC1
3. O=C(c1ccccc1)c1ccccc1-c1ccccc1
4. COC(=O)c1ccc2[nH]c(O)c(C(=Nc3ccc(N(C)C(=O)CN4CCN(C)CC4)cc3)c3ccc(OC)cc3)c2c1
5. COc1cc(/C=C/C(=O)/C=C(/C=C/c2ccc(OC(C)=O)c(OC)c2)OB(F)F)ccc1OC(C)=O
6. CC(=O)OCC(=O)[C@@]1(O)[C@H](C)C[C@H]2[C@@H]3C=C(C)C4=Cc5c(cnn5-c5ccc(F)cc5)C[C@]4(C)[C@H]3[C@@H](O)C[C@@]21C

110% (inactive)
31.9% (inactive)
49.4% (inactive)
6.81% (active)
51.7% (inactive)
61.8% (inactive)
